Each record here notes measured GI50.
Test system: SR
assay.summary: NCI tumour cell line growth inhibition, 48 h
The source made the active and inactive calls. No stated cut-off is given here; in the data, active = GI50 up to about 1.1 µM and inactive = higher.

Known results for compounds:
Looking up CCCCCCCCCCCCN1[C@H]2CCC[C@H]2C(O)[C@@H]2CCC[C@@H]21 (stereo not given in full) , I found its GI50 recorded as 41 µM (inactive)

Looking up CN(N)c1cc(=O)[nH]c(=O)[nH]1 , I found its GI50 recorded as > 100 µM (inactive)

***
Looking up CNC(=O)CNC(=O)N(C[C@@H]1CCCN1C(=O)[C@H](CC(C)C)NC(=O)OC(C)(C)C)C(C)C , I found its GI50 recorded as > 100 µM (inactive)

Looking up COc1cc2c(c(OC)c1OC)-c1ccc(OC)c(=O)cc1C(NC(=O)COc1ccccc1)CC2 (stereo not given) , I found its GI50 recorded as < 0.01 µM (active)

====

Test system: OVCAR-8
assay.summary: NCI tumour cell line growth inhibition, 48 h
Calls of active or inactive are those of the source. Rule as the data show it: active = GI50 up to about 1.1 µM and inactive = higher.
Each record here notes measured GI50.

Known results for molecules:
Looking up CC(=O)c1c2c(cc3c1CC1(Cc4cc5c(cc4C1=O)CCC5)C3)CCC2 (configuration not stated) , I found its GI50 recorded as 71.9 µM (inactive)

Looking up CC(=O)Oc1ccc(Nn2c3ccccc3c3ccccc32)c(C)c1 , I found its GI50 recorded as 24.3 µM (inactive)

Looking up CCCCCCCCCCCCN1[C@H]2CCC[C@H]2C(O)[C@@H]2CCC[C@@H]21 (some centres not stated) , I found its GI50 recorded as > 100 µM (inactive)

Looking up O=[N+]([O-])c1ccc(NS(=O)(=O)C(F)(F)F)cc1 , I found its GI50 recorded as > 100 µM (inactive)

Next:
Looking up CC1(O)CC2C(CC1SC1CC3C(CC1(C)O)C3(C)C)C2(C)C (configuration not stated) , I found its GI50 recorded as 41.9 µM (inactive)

====

// endpoint GI50 / system HCT-15
// return numeric value only (unit: µM, not printed)

Known results for compounds:
Query C/C(=N\NC(=O)N/N=C(\C)c1ccccn1)c1ccccn1 on HCT-15; GI50 returned: 37.8

Query CC1(C)OC[C@@H]([C@H](O)C2C=CC(=O)S2)O1 (some centres not stated) on HCT-15; GI50 returned: 19.8

Query C=C1c2nc3ccccc3n2C=C(c2ccc(OC)cc2)N1c1ccc(OC)cc1 on HCT-15; GI50 returned: 25.5

Query COc1cc2c(cc1OC)-c1c3c(cc4c1[C@@H](C2)N(C)CC4)OCO3 on HCT-15; GI50 returned: 5.77

***
Query C/C(=N/NC(=O)c1ccccc1S(N)(=O)=O)C(CN1CCCCC1)C(C1=C(O)C2C=CC=CC2OC1=O)c1ccccc1 (configuration not stated) on HCT-15; GI50 returned: 49.9

Query O=c1s[s+]([O-])c2ccccc12 (configuration not stated) on HCT-15; GI50 returned: 72.9

====

Test system: K562
assay.summary: NCI tumour cell line growth inhibition, 48 h
Active and inactive are the calls of the source. No stated cut-off is given here; in the data, active = GI50 up to about 1.1 µM and inactive = higher. Non-standard residues stand in square brackets, D forms with d. Residues, ends and D or L forms follow the SMILES beside them. *: point of attachment. hSer = N[CH](CCO)C(=O)O; Boc = CC(C)(C)OC(=O)*
Each record here notes measured GI50.

Known results for compounds:
Looking up CSCC[C@H]1C(=O)N=C(N)N1C(=O)OCc1ccccc1 , I found its GI50 recorded as 21.8 µM (inactive)

Looking up COCCC(NC(=O)C(CC(C)C)NC(=O)OC(C)(C)C)C(N)=O (stereo not drawn) (Boc-Leu-[hSer](Me)-NH2; configuration not given here) , I found its GI50 recorded as > 100 µM (inactive)

***
Looking up Cc1c(N2C(=O)/C(=C/c3ccc(Cl)cc3)N=C2c2ccccc2)c(=O)n(-c2ccccc2)n1C , I found its GI50 recorded as 36.6 µM (inactive)

Looking up CC1CCC2C(C(=O)O[C@H]3C4CCO[C@@H](OC5OC(CO)C(O)C(O)C5O)C4[C@@]4(CO)O[C@@H]34)=CO[C@@H](OC3OC(CO)C(O)C(O)C3O)C12 (some centres undefined) , I found its GI50 recorded as > 10 µM (inactive)

src = ChEMBL document CHEMBL1201862
